Values were extracted from paper PMC12683216.

test protocol: Soluble peptide degradation, Media condition (cell-conditioned media, LC-MS)
Assay type: in vitro ADME, human
measurement context: human; Figure 2B heatmap; pooled TAILS-derived soluble peptides in 24 h hUVEC-conditioned media without cells; 24 h; LC-MS, ratio to βFβA6 internal standard, 24 h / 0 h; N = 5; read-out: Fraction of peptide remaining at 24 hours: hUVEC Media
Where a SMILES comes first, the peptide text is derived from it. [ ]: non-standard residue; d: D form. βAla = NCCC(=O)O
Readings of remaining at 24 h for the listed compounds
Field: numeric (%). Do not append units.

compound: CC(=O)NCCC(=O)N[C@@H](CC(C)C)C(=O)N[C@@H](C)C(=O)N[C@@H](CC(C)C)C(=O)N[C@@H](CCC(=O)O)C(=O)N[C@@H](C)C(=O)N[C@@H](CCCNC(=N)N)C(=O)N[C@H](C(=O)N[C@H](C(=O)N[C@@H](CC(=O)O)C(=O)N[C@@H](CC(C)C)C(=O)NCCC(N)=O)[C@@H](C)O)[C@@H](C)O [LALEARTTDL] (Ac-[βAla]LALEARTTDL[βAla]-NH2)
output unit: %
remaining at 24 h: 104
//
compound: CC(=O)NCCC(=O)N[C@@H](CCCCN)C(=O)N[C@@H](CC(C)C)C(=O)N[C@H](C(=O)N[C@@H](C)C(=O)N[C@@H](CC(=O)O)C(=O)N[C@@H](CC(N)=O)C(=O)N[C@@H](Cc1ccc(O)cc1)C(=O)N[C@@H](C)C(=O)N[C@@H](CO)C(=O)N[C@@H](C)C(=O)N[C@@H](CCC(=O)O)C(=O)NCCC(N)=O)C(C)C [KLVAD-NY] (Ac-[βAla]KLVADNYASAE[βAla]-NH2)
output unit: %
remaining at 24 h: 100

We next turn to a different compound, shown below.
[Q] Which remaining at 24 h reading was recorded for the compound CC[C@H](C)[C@H](NC(=O)CCNC(C)=O)C(=O)N[C@H](C(=O)N[C@@H](CCCCN)C(=O)N[C@H](C(=O)N[C@@H](CC(=O)O)C(=O)N[C@H](C(=O)N1CCC[C@H]1C(=O)N[C@@H](CC(=O)O)C(=O)N[C@@H](CCSC)C(=O)N[C@H](C(=O)NCCC(N)=O)C(C)C)[C@@H](C)CC)[C@@H](C)O)C(C)C [IVKTDIPDMV] (Ac-[βAla]IVKTDIPDMV[βAla]-NH2) ?
[A] 102

* * *

test protocol: Soluble peptide degradation, Media condition (cell-conditioned media, LC-MS)
Format: in vitro ADME, human
measurement context: human, hMSC-conditioned media without cells (Media condition); Figure 3B heatmap; split-and-pool libraries KLVADX1X2ASAE in hMSC-conditioned media without cells; 24 h; LC-MS, ratio to βFβA6; N = 2; read-out: Fraction of peptide remaining after 24 hours: hMSC Media
Where a SMILES comes first, the peptide text is derived from it. [ ]: non-standard residue; d: D form. βAla = NCCC(=O)O
measured attribute: remaining at 24 h (%)
Give a bare numeral; the unit % is implied.

compound: CC(=O)NCCC(=O)N[C@@H](CCCCN)C(=O)N[C@@H](CC(C)C)C(=O)N[C@H](C(=O)N[C@@H](C)C(=O)N[C@@H](CC(=O)O)C(=O)N[C@@H](CC(=O)O)C(=O)N[C@@H](CCC(N)=O)C(=O)N[C@@H](C)C(=O)N[C@@H](CO)C(=O)N[C@@H](C)C(=O)N[C@@H](CCC(=O)O)C(=O)NCCC(N)=O)C(C)C [Asp-Gln] (Ac-[βAla]KLVADDQASAE[βAla]-NH2)
remaining at 24 h (%): 75
--
compound: CC(=O)NCCC(=O)N[C@@H](CCCCN)C(=O)N[C@@H](CC(C)C)C(=O)N[C@H](C(=O)N[C@@H](C)C(=O)N[C@@H](CC(=O)O)C(=O)N[C@@H](Cc1ccc(O)cc1)C(=O)N[C@@H](Cc1c[nH]c2ccccc12)C(=O)N[C@@H](C)C(=O)N[C@@H](CO)C(=O)N[C@@H](C)C(=O)N[C@@H](CCC(=O)O)C(=O)NCCC(N)=O)C(C)C [KLVAD-YW] (Ac-[βAla]KLVADYWASAE[βAla]-NH2)
remaining at 24 h (%): 78
--
compound: CC(=O)NCCC(=O)N[C@@H](CCCCN)C(=O)N[C@@H](CC(C)C)C(=O)N[C@H](C(=O)N[C@@H](C)C(=O)N[C@@H](CC(=O)O)C(=O)N1CCC[C@H]1C(=O)N[C@H](C(=O)N[C@@H](C)C(=O)N[C@@H](CO)C(=O)N[C@@H](C)C(=O)N[C@@H](CCC(=O)O)C(=O)NCCC(N)=O)C(C)C)C(C)C [Pro-Val] (Ac-[βAla]KLVADPVASAE[βAla]-NH2)
remaining at 24 h (%): 84
--
compound: CC(=O)NCCC(=O)N[C@@H](CCCCN)C(=O)N[C@@H](CC(C)C)C(=O)N[C@H](C(=O)N[C@@H](C)C(=O)N[C@@H](CC(=O)O)C(=O)N[C@@H](CO)C(=O)N[C@@H](CC(=O)O)C(=O)N[C@@H](C)C(=O)N[C@@H](CO)C(=O)N[C@@H](C)C(=O)N[C@@H](CCC(=O)O)C(=O)NCCC(N)=O)C(C)C [Ser-Asp] (Ac-[βAla]KLVADSDASAE[βAla]-NH2)
remaining at 24 h (%): 71
--
compound: CC(=O)NCCC(=O)N[C@@H](CCCCN)C(=O)N[C@@H](CC(C)C)C(=O)N[C@H](C(=O)N[C@@H](C)C(=O)N[C@@H](CC(=O)O)C(=O)N[C@@H](CC(C)C)C(=O)N[C@@H](Cc1c[nH]c2ccccc12)C(=O)N[C@@H](C)C(=O)N[C@@H](CO)C(=O)N[C@@H](C)C(=O)N[C@@H](CCC(=O)O)C(=O)NCCC(N)=O)C(C)C [Leu-Trp] (Ac-[βAla]KLVADLWASAE[βAla]-NH2)
remaining at 24 h (%): 62

[Q] Fill in: remaining at 24 h of CSCC[C@H](NC(=O)[C@H](CC(=O)O)NC(=O)[C@H](C)NC(=O)[C@@H](NC(=O)[C@H](CC(C)C)NC(=O)[C@H](CCCCN)NC(=O)CCNC(C)=O)C(C)C)C(=O)N[C@@H](C)C(=O)N[C@@H](C)C(=O)N[C@@H](CO)C(=O)N[C@@H](C)C(=O)N[C@@H](CCC(=O)O)C(=O)NCCC(N)=O [Met-Ala] (Ac-[βAla]KLVADMAASAE[βAla]-NH2) is ___
[A] 61

* * *

test protocol: Soluble peptide degradation, Cells condition (LC-MS)
Type: in vitro ADME, human
measurement context: human, cells or culture medium, Fraction of peptide remaining after 24 hours: hMSC Cells
Where a SMILES comes first, the peptide text is derived from it. [ ]: non-standard residue; d: D form. βAla = NCCC(=O)O
measured attribute: remaining at 24 h (%)
The answer is to be given in %; state only the numeric part.

molecule: CC(=O)NCCC(=O)N[C@@H](CCCCN)C(=O)N[C@@H](CC(C)C)C(=O)N[C@H](C(=O)N[C@@H](C)C(=O)N[C@@H](CC(=O)O)C(=O)N1CCC[C@H]1C(=O)N[C@@H](CC(C)C)C(=O)N[C@@H](C)C(=O)N[C@@H](CO)C(=O)N[C@@H](C)C(=O)N[C@@H](CCC(=O)O)C(=O)NCCC(N)=O)C(C)C [KLVAD-PL] (Ac-[βAla]KLVADPLASAE[βAla]-NH2)
recorded result: 51

[Q] Value lookup for remaining at 24 h; key = CSCC[C@H](NC(=O)[C@H](CC(C)C)NC(=O)[C@H](CC(=O)O)NC(=O)[C@H](C)NC(=O)[C@@H](NC(=O)[C@H](CC(C)C)NC(=O)[C@H](CCCCN)NC(=O)CCNC(C)=O)C(C)C)C(=O)N[C@@H](C)C(=O)N[C@@H](CO)C(=O)N[C@@H](C)C(=O)N[C@@H](CCC(=O)O)C(=O)NCCC(N)=O [KLVAD-LM] (Ac-[βAla]KLVADLMASAE[βAla]-NH2)
[A] 39

* * *

# remaining at 24 h listing for each entry below
test protocol: Soluble peptide degradation, Media condition (cell-conditioned media, LC-MS)
Format: in vitro ADME, human
measurement context: human, hMSC-conditioned media without cells (Media condition); Figure 3B heatmap; split-and-pool libraries KLVADX1X2ASAE in hMSC-conditioned media without cells; 24 h; LC-MS, ratio to βFβA6; N = 2; read-out: Fraction of peptide remaining after 24 hours: hMSC Media
Where a SMILES comes first, the peptide text is derived from it. [ ]: non-standard residue; d: D form. βAla = NCCC(=O)O
Form entry: value (%) — number only.

compound: CC(=O)NCCC(=O)N[C@@H](CCCCN)C(=O)N[C@@H](CC(C)C)C(=O)N[C@H](C(=O)N[C@@H](C)C(=O)N[C@@H](CC(=O)O)C(=O)N1CCC[C@H]1C(=O)N[C@@H](Cc1c[nH]c2ccccc12)C(=O)N[C@@H](C)C(=O)N[C@@H](CO)C(=O)N[C@@H](C)C(=O)N[C@@H](CCC(=O)O)C(=O)NCCC(N)=O)C(C)C [Pro-Trp] (Ac-[βAla]KLVADPWASAE[βAla]-NH2)
output unit: %
remaining at 24 h: 66

Turning now to a further compound:
[Q] Fill blank: measured remaining at 24 h of the compound CC(=O)NCCC(=O)N[C@@H](CCCCN)C(=O)N[C@@H](CC(C)C)C(=O)N[C@H](C(=O)N[C@@H](C)C(=O)N[C@@H](CC(=O)O)C(=O)N[C@@H](CC(N)=O)C(=O)N[C@@H](Cc1ccc(O)cc1)C(=O)N[C@@H](C)C(=O)N[C@@H](CO)C(=O)N[C@@H](C)C(=O)N[C@@H](CCC(=O)O)C(=O)NCCC(N)=O)C(C)C [KLVAD-NY] (Ac-[βAla]KLVADNYASAE[βAla]-NH2) is ____.
[A] 84
